Numbers sourced from patent US7880007B2.

molecular target: M2 muscarinic receptor (Homo sapiens, UniProt P08172); construct: expressed in transfected cells; host or cells: CHO (M2-CHO); assay: Functional mobilization of intracellular calcium (FLIPR), M2-CHO cells; type: cell-based; details: 100% efficacy = maximum response obtained with the Carbachol control
Sequence (P08172 whole entry): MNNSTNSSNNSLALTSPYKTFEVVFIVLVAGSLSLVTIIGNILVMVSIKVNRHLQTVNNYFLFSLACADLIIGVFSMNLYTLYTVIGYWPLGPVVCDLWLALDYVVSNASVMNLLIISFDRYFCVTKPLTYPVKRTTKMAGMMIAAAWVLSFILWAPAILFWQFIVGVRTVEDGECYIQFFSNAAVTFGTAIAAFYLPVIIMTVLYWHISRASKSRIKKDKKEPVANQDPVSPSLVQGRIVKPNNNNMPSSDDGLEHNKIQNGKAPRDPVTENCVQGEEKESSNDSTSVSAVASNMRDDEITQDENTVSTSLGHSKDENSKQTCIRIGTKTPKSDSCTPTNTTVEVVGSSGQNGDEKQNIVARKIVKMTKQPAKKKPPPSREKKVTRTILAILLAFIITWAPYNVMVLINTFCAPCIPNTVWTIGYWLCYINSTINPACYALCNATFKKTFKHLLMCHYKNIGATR
Each record here notes measured Emax.

// worked examples, Emax included
COc1ccc(-c2cc(F)ccc2F)cc1C1CCN([C@H]2C[C@H]3CC[C@H]2C3)CC1 [Compound 206] = < 25%
COc1ccc(-c2ccc(S(=O)(=O)N3CCCC3)cc2)cc1C1CCN(C2CCCCC2)CC1 [Compound 332] = < 25%
COc1ccc(F)cc1C1(F)CCN(C2CCOCC2)CC1 [Compound 314] = < 25%
COc1ccc(Cl)cc1C1(OC)CCN(C2CCC3CCC2C3)CC1 (stereo not drawn) [Compound 80] = < 25%
COc1ccccc1C1CCN(CC2=CC[C@@H]3C[C@@H]2C3(C)C)CC1 [Compound 291] = < 25%
Cc1ccc(C(F)(F)F)cc1C1CCN(C2CCOCC2)CC1 [Compound 358] = 25 to 100%

// recorded Emax for CCOC(=O)N1CCC(N2CCC(OC)(c3cc(Cl)ccc3OC)CC2)CC1 [Compound 55] : < 25%

For this compound ( COc1ccccc1C1CCN(C2CCC(C)C2)CC1 (stereo not drawn) [Compound 265] ), measured Emax is < 25%

In plain terms, FC(F)(F)Oc1ccccc1C1CCN(C2CCOCC2)CC1 [Compound 70] has a documented Emax of < 25%

Reported Emax ( COc1ccccc1C1CC2CCC(C1)N2C1CCCCC1 (stereo not drawn) [Compound 132] ) = < 25%

Sample COc1ccccc1C1CCN(C2CCCC3(CCCCC3)C2)CC1 (stereo not drawn) [Compound 199] ; Emax observed: < 25%

The measured Emax associated with COc1ccc(C#CCC(C)C)cc1C1CCN([C@H]2C[C@H]3CC[C@H]2C3)CC1 [Compound 223] reads < 25%

// field: Emax; key: COc1ccccc1C1CCN(CC2CC3C=CC2C3)CC1 (stereo not drawn) [Compound 307] ; value = 25 to 100%

Input COc1ccc(Cl)cc1C1(OC)CCN(C2CC3CCC2C3)CC1 (stereo not drawn) [Compound 308] . Output Emax: < 25%
